species on record: Bos taurus; assay: Inhibition of bovine liver beta-glucosidase assessed as release of p-nitrophenol at 1000 uM using p-nitrophenyl glycoside as substrate by spectrometric assay relative to control
RESULT TYPE: inhibition (%)

These recorded examples may help you get a feel for the data.
>  <STRUCTURE SMILES STRING>
COc1ccc([C@]2(CO)NC[C@@H](O)[C@@H]2O)cc1OC

>  <inhibition (%)>
22.2

$$$$
>  <STRUCTURE SMILES STRING>
OC[C@]1(c2ccc(F)cc2)NC[C@H](O)[C@H]1O

>  <inhibition (%)>
0.4

$$$$
>  <STRUCTURE SMILES STRING>
CCCCCCCCC[C@]1(CO)NC[C@@H](O)[C@@H]1O

>  <inhibition (%)>
49.2

$$$$
>  <STRUCTURE SMILES STRING>
COc1ccc([C@@]2(CO)NC[C@H](O)[C@H]2O)cc1OC

>  <inhibition (%)>
15.8

$$$$
>  <STRUCTURE SMILES STRING>
OC[C@]1(c2ccc(O)cc2)NC[C@H](O)[C@H]1O

>  <inhibition (%)>
27.6

$$$$

[I] OC[C@@]1(c2c(F)c(F)c(F)c(F)c2F)NC[C@@H](O)[C@@H]1O
[II] OC[C@@]1(c2cccc(F)c2)NC[C@@H](O)[C@@H]1O
[III] OC[C@@]1(c2ccc(O)cc2)NC[C@@H](O)[C@@H]1O
[IV] OC[C@]1(c2c(F)c(F)c(F)c(F)c2F)NC[C@H](O)[C@H]1O
Put the items in sequence by inhibition, from largest down. Form entry: ranked labels (order as requested).
I, II, III, IV
(I: 33%, II: 16.7%, III: 10.8%, IV: 3.8%)

[1] C[C@]1(CO)NC[C@@H](O)[C@@H]1O
[2] OC[C@@]1(c2ccc(F)cc2)NC[C@@H](O)[C@@H]1O
[3] Cc1ccc([C@@]2(CO)NC[C@H](O)[C@H]2O)cc1
Given 3 compounds, produce a descending ranking by inhibition. Please express your ranking as an ordered list of the labels.
1, 3, 2
(1: 35.7%, 3: 16.7%, 2: 8.4%)

[P] CCCC[C@]1(CO)NC[C@@H](O)[C@@H]1O
[Q] OC[C@]1(c2cccc(F)c2)NC[C@H](O)[C@H]1O
Quick check, higher inhibition between P and Q ? Kindly give the label for the entry you pick.
P

[A] COc1ccc([C@@]2(CO)NC[C@H](O)[C@H]2O)cc1
[B] Cc1ccc([C@]2(CO)NC[C@@H](O)[C@@H]2O)cc1
[C] COc1cccc([C@@]2(CO)NC[C@H](O)[C@H]2O)c1
Order the 3 compounds from highest to lowest inhibition. Rank them, then answer with their labels in that order.
A, B, C
(A: 43%, B: 29.1%, C: 12.8%)

Data provenance: ChEMBL document CHEMBL5131499
